Exercise: state measured Cmax for each of the compounds provided.
- experiment_description: Plasma pharmacokinetics of capecitabine and its metabolites after oral capecitabine in CES2-modified mice
- Type: in vivo, mouse
- reported_conditions: female, mouse, plasma, po, 500 mg/kg, female wild-type mice; oral capecitabine 500 mg/kg; plasma; read-out: Cmax
Lab book: enter the figure in ng/mL, no units written.

Return the recorded Cmax value; entry: CCCCCOC(=O)Nc1nc(=O)n([C@@H]2O[C@H](C)[C@@H](O)[C@H]2O)cc1F [Capecitabine, reference compound]
12200

Answer with reported Cmax of C[C@H]1O[C@@H](n2cc(F)c(N)nc2=O)[C@H](O)[C@@H]1O
101000

Fill in reported Cmax for this entry: O=c1[nH]cc(F)c(=O)[nH]1 [5-FU, 5-fluorouracil, reference compound]
105

Sourced from paper PMC11845761
